Value source: patent US20260242478A1

# MEASUREMENT TARGET: Anti-CD28 Fab (SEQ ID NOs: 696, 697)
# Sequence (VH, as listed by the source, chain 1 of 2): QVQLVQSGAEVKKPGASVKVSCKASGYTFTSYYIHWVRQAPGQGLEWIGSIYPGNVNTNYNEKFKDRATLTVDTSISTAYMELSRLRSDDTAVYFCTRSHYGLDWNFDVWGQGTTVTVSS
# Sequence (VL, as listed by the source, chain 2 of 2): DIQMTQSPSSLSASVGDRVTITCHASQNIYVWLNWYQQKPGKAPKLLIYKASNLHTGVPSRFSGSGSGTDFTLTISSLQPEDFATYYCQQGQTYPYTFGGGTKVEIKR
# METHOD NOTES: phage ELISA; biotinylated anti-CD28 Fab on neutravidin plate, clonal phage supernatant, anti-M13 HRP detection;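 further: crude supernatants of single phage clones picked after panning were screened for binding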
REPORTED PROPERTY: Phage binding ELISA, Anti-CD28 Fab signal
Write the number on its own, no unit after it.

# example entries with known answers
[[record]]
binder = "YCDGHKWEYLQKCL (also called Peptide-87 library clone) [Phage-1263]"
meas_value = 0.84

[[record]]
binder = "YCAGHTQEYMLKCL (also called Peptide-87 library clone) [Phage-1271]"
meas_value = 0.78


Phage binding ELISA, Anti-CD28 Fab signal recorded for this binder, YCEGHLPMYMQKCM (also called Peptide-87 library clone) [Phage-1265] , is 0.82

Phage binding ELISA, Anti-CD28 Fab signal recorded for this binder, YCQGHSVQYMAKCL (also called Peptide-87 library clone) [Phage-1272] , is 0.77

Phage binding ELISA, Anti-CD28 Fab signal recorded for this binder, YCDGHSPQYLWKCL (also called Peptide-87 library clone) [Phage-1269] , is 0.8

Phage binding ELISA, Anti-CD28 Fab signal recorded for this binder, YCDGHSMTYMAKCI (also called Peptide-87 library clone) [Phage-1262] , is 0.84

Phage binding ELISA, Anti-CD28 Fab signal recorded for this binder, YCAGHSLQYLGKCY (also called Peptide-87 library clone) [Phage-1260] , is 0.86

Phage binding ELISA, Anti-CD28 Fab signal recorded for this binder, YCAGHSAEYIQKCL (also called Peptide-87 library clone) [Phage-1270] , is 0.8
